# Experimental Target: T1, recombinant human domain 1-3His6 of the cation-independent mannose-6-phosphate receptor (human, UniProt P11717 41-467)
# T1 construct: Biotinylated (NHS-PEG4-biotin) for BLI; Glycosylated; also called hDom1-3His6; hCI-M6PRD1-D3
# Procedure Text: BLI exp 1, dissoc pH 7.4
Measured Parameter: koff (s⁻¹)
Numbers only, in s⁻¹.

Examples from the recorded data:
anti-CI-M6PR VHH7 (VHH, His6-tagged (Pichia pastoris)) VHH: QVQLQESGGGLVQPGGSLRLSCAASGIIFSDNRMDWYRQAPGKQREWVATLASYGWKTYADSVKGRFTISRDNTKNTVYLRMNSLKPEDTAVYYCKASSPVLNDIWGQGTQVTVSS: 0.00999
anti-CI-M6PR VHH5 (VHH, His6-tagged; made in Pichia pastoris, later also in E. coli WK6) VHH: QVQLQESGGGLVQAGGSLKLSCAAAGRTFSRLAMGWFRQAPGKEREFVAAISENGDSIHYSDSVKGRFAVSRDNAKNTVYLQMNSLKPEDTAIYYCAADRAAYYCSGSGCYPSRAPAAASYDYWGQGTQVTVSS: 0.000124

Then this binder:
(Q) Provide koff value for the following binder: anti-CI-M6PR VHH11 (VHH, His6-tagged; made in Pichia pastoris) VHH: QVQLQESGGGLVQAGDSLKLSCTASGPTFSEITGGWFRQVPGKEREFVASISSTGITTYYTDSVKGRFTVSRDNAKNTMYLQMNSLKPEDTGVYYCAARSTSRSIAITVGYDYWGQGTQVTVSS
(A) 0.00317
